# System: Akt phosphorylated at Ser473 in PC-3 cells
# experimental protocol: Cellular assay: phosphorylation of Akt at Ser473 in PC-3 cells (MSD ELISA)
# Type: cell-based
# assay conditions: PC-3 cells, 60 min compound incubation, MSD ELISA; read-out: IC50 pAkt_S473
Quick reference: IC50 of the listed items.
Number only, in nM; omit the unit.

# molecule, observation type, unit symbol, observed
rows = [
    ("C[C@@H](Nc1cc(F)cc(F)c1)c1cc(C(=O)NCCN(C)C)cc2ncc(N3CCOCC3)nc12 [Compound 184b]", "IC50", "nM", 3),
]

Can you look up the measured IC50 of CC(Nc1cc(F)cc(F)c1)c1cc(C(=O)N(C)C)cc2ncc(N3CCOCC3)nc12 (single isomer, unassigned) [Compound 12] for me? 18

====

Quick reference: melting point of the listed items.
Number only, in °C; omit the unit.

Can you look up the measured melting point of CNCCNC(=O)c1cc([C@@H](C)Oc2cccc(F)c2)c2nc(N3CCOCC3)cnc2c1 [Compound 122a] for me? 116

Can you look up the measured melting point of [2H]C([2H])(O)C([2H])([2H])NC(=O)c1cc(C(C)Nc2cccc(F)c2)c2nc(N3CCOCC3)cnc2c1 (single isomer, unassigned) [Compound 408a] for me? 127

Can you look up the measured melting point of CC(Nc1cccc(C#N)c1)c1cc(C(=O)N(C)C)cc2ncc(N3CCOCC3)nc12 (stereo not shown) for me? 186

Can you look up the measured melting point of CC(Nc1cc(F)cc(F)c1)c1cc(C(=O)O)cc2ncc(N3CCOCC3)nc12 (stereo not shown) [Compound 83a] for me? 240

====

# target or system: PI3Kδ (Homo sapiens)
# Sequence (O00329 whole entry): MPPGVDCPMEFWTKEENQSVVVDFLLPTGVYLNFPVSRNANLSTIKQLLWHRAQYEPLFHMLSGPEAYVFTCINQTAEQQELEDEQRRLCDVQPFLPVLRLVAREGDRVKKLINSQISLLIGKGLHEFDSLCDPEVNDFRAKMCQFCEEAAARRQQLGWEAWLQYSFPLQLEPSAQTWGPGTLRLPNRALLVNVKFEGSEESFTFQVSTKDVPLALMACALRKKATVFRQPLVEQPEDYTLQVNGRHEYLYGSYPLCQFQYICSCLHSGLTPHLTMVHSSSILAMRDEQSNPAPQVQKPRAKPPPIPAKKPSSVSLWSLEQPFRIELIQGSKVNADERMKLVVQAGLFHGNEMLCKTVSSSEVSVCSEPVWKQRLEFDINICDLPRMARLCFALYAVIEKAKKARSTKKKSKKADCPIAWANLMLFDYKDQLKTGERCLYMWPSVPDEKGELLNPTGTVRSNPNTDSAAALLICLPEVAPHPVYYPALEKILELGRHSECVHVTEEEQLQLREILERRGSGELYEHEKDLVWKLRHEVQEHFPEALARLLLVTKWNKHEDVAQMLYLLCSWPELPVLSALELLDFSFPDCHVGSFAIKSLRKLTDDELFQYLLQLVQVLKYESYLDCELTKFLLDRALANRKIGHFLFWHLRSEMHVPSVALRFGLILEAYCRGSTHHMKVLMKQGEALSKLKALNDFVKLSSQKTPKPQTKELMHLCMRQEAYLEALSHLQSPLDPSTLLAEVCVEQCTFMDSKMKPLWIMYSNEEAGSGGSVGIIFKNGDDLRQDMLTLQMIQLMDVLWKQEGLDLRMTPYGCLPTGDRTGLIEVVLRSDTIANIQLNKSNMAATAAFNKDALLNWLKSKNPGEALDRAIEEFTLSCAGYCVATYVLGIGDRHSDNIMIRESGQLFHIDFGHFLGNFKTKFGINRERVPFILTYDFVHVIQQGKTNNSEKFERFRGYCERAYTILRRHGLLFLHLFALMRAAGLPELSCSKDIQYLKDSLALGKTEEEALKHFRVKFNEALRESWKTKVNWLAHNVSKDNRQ
pKd: −log10 of the molar value.
Each entry gets Not satisfied if its pKd stays under 7, and Satisfied if its pKd is 7 or above.

Please check the record CC(Nc1ccc(F)c(F)c1)c1cc(C(=O)N2CCN3CCC[C@@H]3C2)cc2ncc(N3CCOCC3)nc12 (single isomer, unassigned) [Compound 347a] and state if its pKd is at or above 7. Not satisfied

Please check the record CNCCN(C)C(=O)c1cc(C(C)Nc2cc(F)cc(F)c2)c2nc(N3CCOCC3)cnc2c1 (single isomer, unassigned) [Compound 137] and state if its pKd is at or above 7. Satisfied

Please check the record CNC(=O)c1cc(C2CCCN2c2cc(F)cc(F)c2)c2nc(N3CCOCC3)cnc2c1 (single isomer, unassigned) [Compound 40] and state if its pKd is at or above 7. Satisfied

Please check the record CC(Nc1cc(F)cc(F)c1)c1cc(C(=O)N2CCOCC2)cc2ncc(N3CCOCC3)nc12 (stereo not shown) [Compound 7] and state if its pKd is at or above 7. Not satisfied

Please check the record CNCCN(C)C(=O)c1cc(C(C)Oc2cc(F)c(F)c(F)c2)c2nc(N3CCOCC3)cnc2c1 (single isomer, unassigned) [Compound 379b] and state if its pKd is at or above 7. Not satisfied

Please check the record COC1CN(Cc2cc(C(C)Nc3cc(F)cc(F)c3)c3nc(N4CCOCC4)cnc3c2)CC1OC (single isomer, unassigned) [Compound 207] and state if its pKd is at or above 7. Not satisfied

Please check the record CNCCN(C)C(=O)c1cc(C(C)Nc2cc(F)cc(F)c2)c2nc(N3CCOCC3)cnc2c1 (single isomer, unassigned) [Compound 152] and state if its pKd is at or above 7. Not satisfied

Please check the record CNCCNC(=O)c1cc(C(C)Nc2cccc(F)c2)c2nc(N3CCOCC3)cnc2c1 (single isomer, unassigned) [Compound 139] and state if its pKd is at or above 7. Not satisfied

Please check the record CC(Nc1ccc(F)c(F)c1)c1cc(C(=O)N(C)CCN(C)C)cc2ncc(N3CCOCC3)nc12 (single isomer, unassigned) [Compound 349b] and state if its pKd is at or above 7. Not satisfied

====

The listing below reports Kd for compounds tested on kinase enzymes (Homo sapiens).
Number only, in µM; omit the unit.

# compound, Kd / µM
data = [
    ("CC(Nc1cc(F)cc(F)c1)c1cc(C(=O)N(C)C)cc2ncc(N3CCOCC3)nc12 (stereo not shown) [Compound 11]", 2.51),
]

Attention now shifts to the item below.
Lab note: need Kd with kinase enzymes (Homo sapiens) for entry CC(Nc1ccc(F)c(F)c1)c1cc(C(=O)NC2CCNC2)cc2ncc(N3CCOCC3)nc12 (stereo not shown) [Compound 325a] , please look it up. 14.1

====

The listing below reports Kd for compounds tested on kinase enzymes (Homo sapiens, UniProt P48736).
Sequence (P48736 whole entry): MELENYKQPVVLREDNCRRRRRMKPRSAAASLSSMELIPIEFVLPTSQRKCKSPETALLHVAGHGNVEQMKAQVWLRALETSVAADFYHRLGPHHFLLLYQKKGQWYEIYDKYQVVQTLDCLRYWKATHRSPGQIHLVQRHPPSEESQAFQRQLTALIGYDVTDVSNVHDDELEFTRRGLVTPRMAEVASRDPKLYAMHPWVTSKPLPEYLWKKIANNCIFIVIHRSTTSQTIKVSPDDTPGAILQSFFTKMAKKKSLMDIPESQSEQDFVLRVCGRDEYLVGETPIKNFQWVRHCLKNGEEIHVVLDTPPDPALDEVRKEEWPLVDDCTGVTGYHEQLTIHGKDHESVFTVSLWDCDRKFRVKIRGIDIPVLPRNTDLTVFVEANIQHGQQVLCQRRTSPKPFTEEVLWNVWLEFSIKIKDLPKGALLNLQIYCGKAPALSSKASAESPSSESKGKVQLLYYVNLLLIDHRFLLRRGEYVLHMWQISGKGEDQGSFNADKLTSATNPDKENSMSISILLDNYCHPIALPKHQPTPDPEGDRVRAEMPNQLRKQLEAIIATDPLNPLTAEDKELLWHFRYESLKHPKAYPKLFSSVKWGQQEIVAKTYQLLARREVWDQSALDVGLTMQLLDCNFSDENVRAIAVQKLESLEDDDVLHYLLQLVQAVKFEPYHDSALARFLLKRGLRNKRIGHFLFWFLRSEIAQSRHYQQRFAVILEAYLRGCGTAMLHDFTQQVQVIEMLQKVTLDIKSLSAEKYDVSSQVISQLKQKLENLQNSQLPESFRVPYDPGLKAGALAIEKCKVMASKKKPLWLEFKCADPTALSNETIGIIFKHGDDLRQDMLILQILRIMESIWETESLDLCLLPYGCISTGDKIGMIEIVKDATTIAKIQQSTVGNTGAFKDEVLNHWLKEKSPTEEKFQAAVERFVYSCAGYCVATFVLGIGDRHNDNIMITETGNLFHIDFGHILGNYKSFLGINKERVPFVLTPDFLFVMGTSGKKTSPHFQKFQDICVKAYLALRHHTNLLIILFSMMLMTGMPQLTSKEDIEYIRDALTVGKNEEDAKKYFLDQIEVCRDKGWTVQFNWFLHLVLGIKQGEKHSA
Number only, in µM; omit the unit.

Lab note: need Kd with kinase enzymes (Homo sapiens, UniProt P48736) for entry CC(Nc1cccc(F)c1)c1cc(C(=O)N2CCC[C@H](O)C2)cc2ncc(N3CCOCC3)nc12 (single isomer, unassigned) [Compound 320a] , please look it up. 4.47

Lab note: need Kd with kinase enzymes (Homo sapiens, UniProt P48736) for entry CC(C)N1CCN(C(=O)c2cc(C3CCCN3c3cc(F)cc(F)c3)c3nc(N4CCOCC4)cnc3c2)CC1 (stereo not shown) [Compound 69] , please look it up. 3.09

Lab note: need Kd with kinase enzymes (Homo sapiens, UniProt P48736) for entry CC(Nc1cc(F)c(F)c(F)c1)c1cc(C(=O)N2CCCN(C(C)C)CC2)cc2ncc(N3CCOCC3)nc12 (single isomer, unassigned) [Compound 388b] , please look it up. 2.4

Lab note: need Kd with kinase enzymes (Homo sapiens, UniProt P48736) for entry CC(Nc1cc(F)cc(F)c1)c1cc(C(=O)N(C)CCN(C)C)cc2ncc(N3CCOCC3)nc12 (single isomer, unassigned) [Compound 181] , please look it up. 17.8

Lab note: need Kd with kinase enzymes (Homo sapiens, UniProt P48736) for entry CC(Oc1cccc(F)c1)c1cc(CO)cc2ncc(N3CCOCC3)nc12 (single isomer, unassigned) [Compound 88] , please look it up. 4.68

Lab note: need Kd with kinase enzymes (Homo sapiens, UniProt P48736) for entry CC(Oc1ccc(F)c(F)c1)c1cc(C(=O)NCCN(C)C)cc2ncc(N3CCOCC3)nc12 (single isomer, unassigned) [Compound 299a] , please look it up. 11

Lab note: need Kd with kinase enzymes (Homo sapiens, UniProt P48736) for entry CC(c1cc(C(=O)O)cc2ncc(N3CCOCC3)nc12)N(C)c1cccc(F)c1 (stereo not shown) [Compound 98] , please look it up. 0.437

Lab note: need Kd with kinase enzymes (Homo sapiens, UniProt P48736) for entry CC(Nc1cc(F)cc(F)c1)c1cc(CNCC(F)F)cc2ncc(N3CCOCC3)nc12 (stereo not shown) [Compound 164] , please look it up. 13.8

Lab note: need Kd with kinase enzymes (Homo sapiens, UniProt P48736) for entry CNCCNC(=O)c1cc([C@H](C)Oc2cccc(F)c2)c2nc(N3CCOCC3)cnc2c1 [Compound 123] , please look it up. 12.6

Lab note: need Kd with kinase enzymes (Homo sapiens, UniProt P48736) for entry Cc1c(F)cccc1CNc1cc(C(=O)NCCN(C)C)cc2ncc(N3CCOCC3)nc12 [Compound 383] , please look it up. 7.94

====

The listing below reports Kd for compounds tested on PI3Kδ (Homo sapiens).

# compound, target or system, observation type, observed
records = [
    ("CC(Nc1cc(F)cc(F)c1)c1cc(CO)cc2ncc(N3CCOCC3)nc12 (centres unmarked) [Compound 84]", "PI3Kδ (Homo sapiens)", "Kd", "96 nM"),
    ("CCN1CCN(C(=O)c2cc(C(C)Oc3cccc(F)c3)c3nc(N4CCOCC4)cnc3c2)CC1 (single isomer, unassigned) [Compound 92]", "PI3Kδ (Homo sapiens)", "Kd", "16600 nM"),
    ("CNCCNC(=O)c1cc(C(C)Nc2cc(F)cc(F)c2)c2nc(N3CCOCC3)cnc2c1 (single isomer, unassigned) [Compound 406a]", "PI3Kδ (Homo sapiens)", "Kd", "39 nM"),
    ("CC(Nc1ccc(F)c(F)c1)c1cc(C(=O)N2CCC[C@H](O)C2)cc2ncc(N3CCOCC3)nc12 (some centres unmarked) [Compound 302]", "PI3Kδ (Homo sapiens)", "Kd", "380 nM"),
    ("CC(Nc1ccc(F)c(F)c1)c1cc(C(=O)N2C[C@@H](C)N[C@@H](C)C2)cc2ncc(N3CCOCC3)nc12 (single isomer, unassigned) [Compound 357a]", "PI3Kδ (Homo sapiens)", "Kd", "16200 nM"),
    ("COC(=O)c1cc(C(C)Nc2cc(F)cc(Cl)c2)c2nc(N3CCOCC3)cnc2c1 (centres unmarked) [Compound 99]", "PI3Kδ (Homo sapiens)", "Kd", "4680 nM"),
    ("CN(C)C(=O)c1cc(N2CCC[C@@H]2c2cc(F)cc(F)c2)c2nc(C3=CCOCC3)cnc2c1 [Compound 398]", "PI3Kδ (Homo sapiens)", "Kd", "5750 nM"),
    ("O=C(O)c1cc(C2CCCN2c2cc(F)cc(F)c2)c2nc(N3CCOCC3)cnc2c1 (single isomer, unassigned) [Compound 251]", "PI3Kδ (Homo sapiens)", "Kd", "23 nM"),
    ("CN(C)C(=O)c1cc([C@@H]2CCCN2c2cc(F)cc(F)c2)c2nc(N3CCOCC3)cnc2c1 [Compound 2]", "PI3Kδ (Homo sapiens)", "Kd", "16400 nM"),
    ("Cc1cccc(NC(C)c2cc(C(=O)N3CCOCC3)cc3ncc(N4CCOCC4)nc23)c1 (centres unmarked) [Compound 120]", "PI3Kδ (Homo sapiens)", "Kd", "2190 nM"),
]

Lab note: need Kd with PI3Kδ (Homo sapiens) for entry CC(Oc1cc(F)cc(F)c1)c1cc(C(=O)N(C)CCO)cc2ncc(N3CCOCC3)nc12 (single isomer, unassigned) [Compound 61] , please look it up. 209 nM

Lab note: need Kd with PI3Kδ (Homo sapiens) for entry CC(Nc1cc(F)cc(F)c1)c1cc(CN2CCn3nccc3C2)cc2ncc(N3CCOCC3)nc12 (single isomer, unassigned) [Compound 210] , please look it up. 1020 nM

Lab note: need Kd with PI3Kδ (Homo sapiens) for entry CC(Nc1cc(F)c(F)c(F)c1)c1cc(C(=O)NC[C@@H](C)O)cc2ncc(N3CCOCC3)nc12 (single isomer, unassigned) [Compound 284a] , please look it up. 939 nM

Lab note: need Kd with PI3Kδ (Homo sapiens) for entry CC(Nc1cc(F)cc(F)c1)c1cc(C(=O)N2CCNC(C(F)(F)F)C2)cc2ncc(N3CCOCC3)nc12 (single isomer, unassigned) [Compound 237b] , please look it up. 7760 nM
